assay: Ex vivo biodistribution in mice with MM1S tumor xenografts; settings: both sexes, NSG, mouse, stomach (with contents), 80 µCi, 90 min p.i.; MM1S xenograft mice; read-out: uptake in stomach (with contents)
observable: tissue uptake at 1.5 h (%ID/g)
Answer with a number only, understood to be in %ID/g.

Find the recorded tissue uptake at 1.5 h belonging to CC[C@H](C)[C@@H]1NC(=O)[C@@H]2CCCN2C(=O)[C@H](Cc2ccccc2)NC(=O)[C@H](CC(=O)O)NC(=O)[C@H](C)NC(=O)[C@@H]2CSCc3cc(cc(c3)CSC[C@H](NC(=O)[C@H](C)NC(=O)CCOCCOCCOCCNC(=O)CN3CCN(CC(=O)O)CCN(CC(=O)O)CC3)C(=O)N[C@@H](C(C)C)C(=O)N3CCC[C@H]3C(=O)N2)CSC[C@@H](C(N)=O)NC(=O)[C@H](Cc2ccc(O)cc2)NC(=O)[C@H](Cc2c[nH]c3ccccc23)NC1=O [[^68Ga]Ga‐AJ206, metal not drawn] and report it.
0.82
